# ASSAY_DETAILS: in vitro
# Type: in vitro ADME
# APPLIED_CONDITIONS: rat, plasma
Bridge positions count the residues as written; N and C are the ends. Square brackets hold non-standard residues; d marks the D form. Peptide text beside a SMILES is read from it.
ENDPOINT_LABEL: half-life at 10 μM (min)
Give a bare numeral; the unit min is implied.

Q: Fill in half-life at 10 μM for record C[C@@H](O)[C@@H]1NC(=O)[C@H](Cc2c[nH]cn2)NC(=O)[C@H](Cc2ccc(O)cc2)NC(=O)[C@@H]2CCCN2C(=O)[C@H]2CCCN2C(=O)[C@H](CCCCN)NC(=O)[C@H](CCC(N)=O)NC(=O)[C@H](Cc2ccc(O)cc2)NC(=O)[C@@H]2CSSC[C@H](NC1=O)C(=O)N[C@@H](CCCNC(=N)N)C(=O)NCC(=O)N1CCC[C@@H]1C(=O)N[C@@H](CCCNC(=N)N)C(=O)N[C@@H](CCCNC(=N)N)C(=O)N[C@@H](Cc1c[nH]c3ccccc13)C(=O)N2 [Ex. 120] (cyclo(YHTCRG[dP]RRWCYQK[dP]P); disulfide 4-11)
Result: 174

meta.source: patent US8895695B2
